Target or test system: T1, human CD24 on cells (human, UniProt P25063 27-59)
T1 chain (looked up): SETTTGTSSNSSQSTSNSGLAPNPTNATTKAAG
Procedure text: cell-based or functional assay
EC50 of Phagocytosis assay, IgG4, Kappa; HEK293-CD24 by entry:
Please don't drop the unit; write it after the number.

79-E3H3, IgG4, Kappa (antibody, V domains shown) VH: EVQLQQSGPELVKPGASVKISCKASGYEFTGYHMNWVKQSPEKSLEWIGEINPITSDKTFNQKFKAKATLTVDRSSSTAYMHLKSLTSEDSAVYYCARRDYDTSLDYWGQGTTLTVSS VL: DVQITQSPSYLAASPGETITIYCRASKSISKYLAWYQEKPEKTNRLLIYAGSTLQSGIPSRFRGSGSGKDFTLTVSGLEPEDFAMYYCQQHNEYPLTFGAGTKLELK | 0.58 µg/mL

IN: Please give the measured EC50 of Phagocytosis assay, IgG4, Kappa; HEK293-CD24 for this binder: 62-F7E9, IgG4, Kappa (antibody, V domains shown) VH: QVQLQQPGAELVKPGASVKLSCKASGYTSTSYWLHWVKQRPGRGLEWIGRIDPNSGETKFNEKFKSQATLTVDKPSSTAYMQLNSLTSEDSAVYYCALYYYGSILFDYWGQGTTLTVSS VL: ENVLTQSPAIMSASPGEKVTMTCRTSSIISSGFLHWYQQKSGASPKLWIYSTSNLASGVPARFSGSGSGTSYSLTISSVEAEDAATYYCQQYSGHPLTFGAGTKLELK
OUT: 10.5 µg/mL

IN: Please give the measured EC50 of Phagocytosis assay, IgG4, Kappa; HEK293-CD24 for this binder: 85-D5A10 (4434), IgG4, Kappa (antibody, V domains shown) VH: EVQLQQSGPELVKPGASVKISCKASGYEFTGYHMNWVKQSPEKSLEWIGEINPITSDKTFNQKFKAKATLTVDRSSSTAYMHLKSLTSDDSAVYYCARRDYGTSLDYWGQGTTLTVSS VL: DVQITQSPSYLAASPGETITIYCRASKSISKYLAWYQEKPEKTIRLLIYAGSTLQSGIPSRFRGSGSGKDFTLTVSGLEPEDFAMYYCQQHNEYPITFGAGTKLELI
OUT: 0.42 µg/mL
